experiment: Pharmacokinetics in rat plasma, IV and oral; assay type: in vivo, male Sprague-Dawley rats; settings: male, Sprague-Dawley; rat plasma, IV 1 mg/kg
VALUE KIND: AUC(0-t) (µg·h/mL)

{"COMPOUND": "C[C@H]1CO[C@@H]2Cn3cc(C(=O)NCc4ccc(F)cc4F)c(=O)c(O)c3C(=O)N12 [CAB, Cabotegravir, reference compound]", "OBSERVED RESULT": 141}

----------
assay: Pharmacokinetics in rat plasma, IV and oral; format: in vivo, male Sprague-Dawley rats; conditions: male, Sprague-Dawley; rat plasma, oral 5 mg/kg
VALUE KIND: half-life (h)

{"COMPOUND": "C[C@H]1CO[C@@H]2Cn3cc(C(=O)NCc4ccc(F)cc4F)c(=O)c(O)c3C(=O)N12 [CAB, Cabotegravir, reference compound]", "VALUE KIND": "half-life", "UNIT TAG": "h", "OBSERVED RESULT": 19.1}

----------
Assay: Pharmacokinetics in rat plasma, IV and oral
Format: in vivo, male Sprague-Dawley rats
Conditions: male, Sprague-Dawley; rat plasma, IV 1 mg/kg
Experimental: The research was carried out on male Sprague-Dawley rats obtained from Charles River Laboratories (Germany). […] The age of the animals at the time of administration was 8-10 weeks. The animals were pre-catheterized so that all blood samples during the study of each substance could be taken from the same animals. Each substance was tested in 3 animals at each route of administration. […]

{"COMPOUND": "C[C@H]1CO[C@@H]2Cn3cc(C(=O)NCc4ccc(F)cc4F)c(=O)c(O)c3C(=O)N12 [CAB, Cabotegravir, reference compound]", "UNIT TAG": "h", "half-life": 18.3}

----------
test: Pharmacokinetics in rat plasma, IV and oral; type: in vivo, male Sprague-Dawley rats; conditions: male, Sprague-Dawley; rat plasma, oral 5 mg/kg

{"MOLECULE": "C[C@H]1CO[C@@H]2Cn3cc(C(=O)NCc4ccc(F)cc4F)c(=O)c(O)c3C(=O)N12 [CAB, Cabotegravir, reference compound]", "AUC(0-t)": "62300 ng·h/mL"}

----------
system: HIV-1 (IIIB strain); experiment: Anti-HIV cytoprotection assay (XTT), HIV-1 IIIB in CEM-SS cells; assay type: cell-based; conditions: Human immunodeficiency virus 1, IIIB, CEM-SS, CEM-SS cell line; read-out: Inhibitory activity (EC50) against HIV-1 (IIIB strain)
EC50 values, listed per item

{"MOLECULE": "O=C(NCc1c(F)cc(F)nc1F)c1cn2c(c(O)c1=O)C(=O)N1[C@H]3CC[C@H](C3)O[C@@H]1C2 [Compound 1.3.2]", "ASSAYED TARGET": "HIV-1 (IIIB strain)", "EC50": "0.002 to 0.01 µM"}
{"MOLECULE": "C[C@H]1CO[C@@H]2Cn3cc(C(=O)NCc4nc5ccc(Cl)cc5o4)c(=O)c(O)c3C(=O)N12 [Compound 1.1.39]", "ASSAYED TARGET": "HIV-1 (IIIB strain)", "EC50": "0.002 to 0.01 µM"}
{"MOLECULE": "C[C@@H]1CO[C@@]23CCC[C@@H]2n2cc(C(=O)NCc4ccc(F)nc4F)c(=O)c(O)c2C(=O)N13 [Compound 2.1.1]", "ASSAYED TARGET": "HIV-1 (IIIB strain)", "EC50": "0.002 to 0.01 µM"}
{"MOLECULE": "CCn1nc(C)c(CNC(=O)c2cn3c(c(O)c2=O)C(=O)N2[C@@H](C)CO[C@@H]2C3)c1C [Compound 1.1.6]", "ASSAYED TARGET": "HIV-1 (IIIB strain)", "EC50": "0.01 to 0.03 µM"}
{"MOLECULE": "C[C@H]1CO[C@@H]2Cn3cc(C(=O)NCc4ncc(F)cc4F)c(=O)c(O)c3C(=O)N12 [Compound 1.1.17]", "ASSAYED TARGET": "HIV-1 (IIIB strain)", "EC50": "0.00024 µM"}
{"MOLECULE": "CC(C)n1c(CNC(=O)c2cn3c(c(O)c2=O)C(=O)N2[C@@H](C)CO[C@@H]2C3)nc2ccc(Cl)cc21 [Compound 1.1.45]", "ASSAYED TARGET": "HIV-1 (IIIB strain)", "EC50": "> 0.03 µM"}
{"MOLECULE": "C[C@H]1CO[C@@H]2Cn3cc(C(=O)NCc4c(F)ccnc4F)c(=O)c(O)c3C(=O)N12 [Compound 1.1.21]", "ASSAYED TARGET": "HIV-1 (IIIB strain)", "EC50": "> 0.03 µM"}

----------
assay: Pharmacokinetics in rat plasma, IV and oral; format: in vivo, male Sprague-Dawley rats; details: male, Sprague-Dawley; rat plasma, oral 5 mg/kg

{"COMPOUND": "C[C@H]1CO[C@@H]2Cn3cc(C(=O)NCc4ccc(F)cc4F)c(=O)c(O)c3C(=O)N12 [CAB, Cabotegravir, reference compound]", "MRT last": "8.05 h"}

----------
Item-by-item account of pEC50
test system: HIV-1 (IIIB strain); experiment: Anti-HIV cytoprotection assay (XTT), HIV-1 IIIB in CEM-SS cells; type: cell-based; settings: Human immunodeficiency virus 1, IIIB, CEM-SS, CEM-SS cell line; read-out: Inhibitory activity (EC50) against HIV-1 (IIIB strain)
pEC50: −log10 of the molar value.

{"SUBSTANCE SMILES": "C[C@H]1CO[C@@H]2Cn3cc(C(=O)NCc4cnc5ccccc5c4)c(=O)c(O)c3C(=O)N12", "ASSAYED TARGET": "HIV-1 (IIIB strain)", "pEC50": "8.00 to 8.70"}
{"SUBSTANCE SMILES": "C[C@H]1CO[C@@H]2Cn3cc(C(=O)NCc4nc5ccccc5n4C)c(=O)c(O)c3C(=O)N12", "ASSAYED TARGET": "HIV-1 (IIIB strain)", "pEC50": "< 7.52"}
{"SUBSTANCE SMILES": "C[C@H]1CO[C@@H]2Cn3cc(C(=O)NCc4ccc5c(ccn5C)c4)c(=O)c(O)c3C(=O)N12", "ASSAYED TARGET": "HIV-1 (IIIB strain)", "pEC50": "7.52 to 8.00"}
{"SUBSTANCE SMILES": "Cc1ccc(CNC(=O)c2cn3c(c(O)c2=O)C(=O)N2[C@@H](C)CO[C@@H]2C3)o1", "ASSAYED TARGET": "HIV-1 (IIIB strain)", "pEC50": "8.00 to 8.70"}
{"SUBSTANCE SMILES": "Cc1nc2cc(CNC(=O)c3cn4c(c(O)c3=O)C(=O)N3[C@@H](C)CO[C@@H]3C4)ccc2n1C", "ASSAYED TARGET": "HIV-1 (IIIB strain)", "pEC50": "< 7.52"}
{"SUBSTANCE SMILES": "Cc1cc(CNC(=O)c2cn3c(c(O)c2=O)C(=O)N2[C@@H](C)CO[C@@H]2C3)c2ccccc2n1", "ASSAYED TARGET": "HIV-1 (IIIB strain)", "pEC50": "8.00 to 8.70"}
{"SUBSTANCE SMILES": "C[C@H]1CO[C@@H]2Cn3cc(C(=O)NCc4cc5ccccc5o4)c(=O)c(O)c3C(=O)N12", "ASSAYED TARGET": "HIV-1 (IIIB strain)", "pEC50": "8.00 to 8.70"}
{"SUBSTANCE SMILES": "Cc1nonc1CNC(=O)c1cn2c(c(O)c1=O)C(=O)N1[C@@H](C)CO[C@@H]1C2", "ASSAYED TARGET": "HIV-1 (IIIB strain)", "pEC50": "7.52 to 8.00"}
{"SUBSTANCE SMILES": "C[C@H]1CO[C@@H]2Cn3cc(C(=O)NCc4nc5cc(F)ccc5[nH]4)c(=O)c(O)c3C(=O)N12", "ASSAYED TARGET": "HIV-1 (IIIB strain)", "pEC50": "7.52 to 8.00"}
{"SUBSTANCE SMILES": "C[C@H]1CO[C@@H]2Cn3cc(C(=O)NCc4cnc5cnccn45)c(=O)c(O)c3C(=O)N12", "ASSAYED TARGET": "HIV-1 (IIIB strain)", "pEC50": "< 7.52"}
{"SUBSTANCE SMILES": "C[C@H]1CO[C@@H]2Cn3cc(C(=O)NCc4ccc5sccc5c4)c(=O)c(O)c3C(=O)N12", "ASSAYED TARGET": "HIV-1 (IIIB strain)", "pEC50": "8.00 to 8.70"}

----------
Catalogue of pEC50 readings, one per entry.
test system: HIV-1 (IIIB strain); assay: Anti-HIV cytoprotection assay (XTT), HIV-1 IIIB in CEM-SS cells; assay type: cell-based; settings: Human immunodeficiency virus 1, IIIB, CEM-SS, CEM-SS cell line; read-out: Inhibitory activity (EC50) against HIV-1 (IIIB strain)
pEC50: −log10 of the molar value.
VALUE KIND: pEC50

{"SUBSTANCE SMILES": "C[C@H]1CO[C@@]23CCC[C@@H]2n2cc(C(=O)NCc4c(F)cc(F)nc4F)c(=O)c(O)c2C(=O)N13", "ASSAYED TARGET": "HIV-1 (IIIB strain)", "OBSERVED RESULT": "8.00 to 8.70"}
{"SUBSTANCE SMILES": "C[C@H]1CO[C@@H]2Cn3cc(C(=O)NCc4nn(C)c(Cl)c4Cl)c(=O)c(O)c3C(=O)N12", "ASSAYED TARGET": "HIV-1 (IIIB strain)", "OBSERVED RESULT": 9.23}
{"SUBSTANCE SMILES": "C[C@H]1CO[C@@H]2Cn3cc(C(=O)NCc4ccnc5ccccc45)c(=O)c(O)c3C(=O)N12", "ASSAYED TARGET": "HIV-1 (IIIB strain)", "OBSERVED RESULT": "> 8.70"}
{"SUBSTANCE SMILES": "C[C@H]1CO[C@@H]2Cn3cc(C(=O)NCc4n[nH]c5c4CCCCC5)c(=O)c(O)c3C(=O)N12", "ASSAYED TARGET": "HIV-1 (IIIB strain)", "OBSERVED RESULT": "8.00 to 8.70"}
{"SUBSTANCE SMILES": "C[C@H]1CO[C@@H]2Cn3cc(C(=O)NCc4nc5ccc(Cl)cc5n4C)c(=O)c(O)c3C(=O)N12", "ASSAYED TARGET": "HIV-1 (IIIB strain)", "OBSERVED RESULT": "< 7.52"}
{"SUBSTANCE SMILES": "C[C@H]1CO[C@@H]2Cn3cc(C(=O)NCc4ncccc4F)c(=O)c(O)c3C(=O)N12", "ASSAYED TARGET": "HIV-1 (IIIB strain)", "OBSERVED RESULT": "7.52 to 8.00"}
{"SUBSTANCE SMILES": "C[C@H]1CO[C@@H]2Cn3cc(C(=O)NCc4cccc5cccnc45)c(=O)c(O)c3C(=O)N12", "ASSAYED TARGET": "HIV-1 (IIIB strain)", "OBSERVED RESULT": 8.66}
